Cited source: patent US20120309934A1

target: T1, Fibronectin ED-B protein (human fibronectin extra domain B, N-terminal His-tag) (human, UniProt P02751 1266-1356, biotinylated with sulfo-NHS-SS-biotin for biopanning, input-phage ELISA and SPR on the streptavidin chip); assay: SPR (BIAcore X), 2,000 RU biotinylated ED-B on streptavidin chip, PBS pH 7.4, 30 µl/min
T1 construct: domain: ED-B; Expressed in E. coli BL21 from pET28b; also called biotinylated-EDB; not shown: N-terminal His-tag from the pET28b vector
T1 sequence (P02751 1266-1356): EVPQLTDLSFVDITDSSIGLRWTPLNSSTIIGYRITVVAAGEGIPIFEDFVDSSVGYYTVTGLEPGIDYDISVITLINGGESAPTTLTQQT
The binders listed here are annotated with their pKd.
The meaning of pKd here: minus log10 of the concentration in molar units.

BINDER	REPORTED MEASUREMENT
HCSSAVGKTWNPATGKWTEGIIRLEQ (Synthetic peptide (Anigen)) [Bipodal-peptide binder with HP7 β-hairpin backbone carrying the ED-B peptide 2 binding regions]	7.08

Now look at this entry.
q: Value lookup for pKd; key = HCSSAVGKKWTYNPATGKFTVQEGIIRLEQ (Synthetic peptide (Anigen)) [Bipodal-peptide binder with GB1 m3 β-hairpin backbone carrying the ED-B peptide 2 binding regions]
a: 7.15
